# System: CD2F1 mice, L1210 leukemia ip, survival T/C
# experimental-protocol: NCI In Vivo Anticancer Drug Screen. Data for tumor model L1210 Leukemia (intraperitoneal) in CD2F1 (CDF1) mice
# particulars: endpoint: mean survival time; dose: 100.0 mg/kg/injection; schedule: Q01DX009 (ip); vehicle: saline with Tween-80; higher = longer survival
Inconclusive results and toxic doses are left out.
The entries below are paired with their reported T/C.

{"compound": "COc1ccc(NC(=O)CCC(=O)Oc2ccccc2)cc1", "T/C": "94 % of control"}
{"compound": "CC(=O)N(C)c1ccc(NC(=O)Nc2ccc(Cl)cc2C)cc1", "T/C": "88 % of control"}
{"compound": "COc1ccc(F)cc1NC(=O)OC(C)C", "T/C": "92 % of control"}
{"compound": "Nc1cc(S(=O)(=O)c2ccc(N3CCCCC3)c(N)c2)ccc1N1CCCCC1", "T/C": "110 % of control"}
{"compound": "O=C1C(Br)=CC(Br)(Br)C=C1Br", "T/C": "88 % of control"}
{"compound": "O=C(c1ccccc1)C(c1ccccc1)C(SCc1ccccc1)c1ccccc1 (stereo not given)", "T/C": "94 % of control"}
{"compound": "CC1(C)CC2(OC2c2ccccc2[N+](=O)[O-])C(=O)c2ccccc21 (stereo not given)", "T/C": "98 % of control"}
{"compound": "O=C1c2ccccc2C(=O)c2c(Sc3ccccc3)cccc21", "T/C": "97 % of control"}
{"compound": "COC(=O)C(Br)C(OC)c1ccc(Cl)cc1 (stereo not given)", "T/C": "101 % of control"}
{"compound": "CC(C)(CO)CBr", "T/C": "95 % of control"}
{"compound": "CCCCCCCCCC(=O)Nc1ccc(C(=O)OCC)cc1", "T/C": "95 % of control"}
{"compound": "CCCSc1ccc2nc(NC(=O)OC)[nH]c2c1", "T/C": "107 % of control"}
{"compound": "O=[N+]([O-])c1ccc2c(c1)CS(=O)(=O)C2", "T/C": "101 % of control"}
{"compound": "Cc1cc(C)c(N2C(=O)CC(Sc3ccccc3N)C2=O)c(C)c1 (stereo not given)", "T/C": "92 % of control"}
{"compound": "CCOC(=O)C(=CN1CCCCCC1)C(=O)OCC", "T/C": "94 % of control"}
{"compound": "O=C(O)C1=NN(c2cccc([N+](=O)[O-])c2)C(=O)C1", "T/C": "114 % of control"}
{"compound": "CC(C)(C)C1CCC(S(=O)c2ccc([N+](=O)[O-])cc2[N+](=O)[O-])CC1 (stereo not given)", "T/C": "90 % of control"}
{"compound": "CCCCCCCCC(=O)N(C)OC", "T/C": "104 % of control"}
{"compound": "CCCCCCCCCCCCCCCCCCC#N", "T/C": "100 % of control"}
{"compound": "CCOC(=O)c1cc(C)[nH]c(=O)c1C#N", "T/C": "93 % of control"}
{"compound": "Nc1nc(N)nc(NC(=O)COc2cc(Cl)c(Cl)cc2Cl)n1", "T/C": "100 % of control"}
{"compound": "O=C(Nc1ccc(Oc2ccc(Cl)c(Cl)c2)c(Cl)c1)Nc1cc(Cl)c(Cl)cc1S(=O)(=O)O", "T/C": "97 % of control"}
{"compound": "CCOC(=O)c1cc(CO)nc2c(Cl)cc(Cl)cc12", "T/C": "91 % of control"}
{"compound": "Cc1ccc(C(=O)c2cnc(C)n2Cc2ccccc2)cc1", "T/C": "92 % of control"}
{"compound": "Cc1c(N)nc(I)c2ccccc12", "T/C": "98 % of control"}
